system-under-test: [^3 H] GBR12935 binding in rat strialal crude membrane (Rattus norvegicus)
Construct: from tissue; host or cells: corpus striatum of Wistar male rat, crude membrane
Sequence (P23977 whole entry): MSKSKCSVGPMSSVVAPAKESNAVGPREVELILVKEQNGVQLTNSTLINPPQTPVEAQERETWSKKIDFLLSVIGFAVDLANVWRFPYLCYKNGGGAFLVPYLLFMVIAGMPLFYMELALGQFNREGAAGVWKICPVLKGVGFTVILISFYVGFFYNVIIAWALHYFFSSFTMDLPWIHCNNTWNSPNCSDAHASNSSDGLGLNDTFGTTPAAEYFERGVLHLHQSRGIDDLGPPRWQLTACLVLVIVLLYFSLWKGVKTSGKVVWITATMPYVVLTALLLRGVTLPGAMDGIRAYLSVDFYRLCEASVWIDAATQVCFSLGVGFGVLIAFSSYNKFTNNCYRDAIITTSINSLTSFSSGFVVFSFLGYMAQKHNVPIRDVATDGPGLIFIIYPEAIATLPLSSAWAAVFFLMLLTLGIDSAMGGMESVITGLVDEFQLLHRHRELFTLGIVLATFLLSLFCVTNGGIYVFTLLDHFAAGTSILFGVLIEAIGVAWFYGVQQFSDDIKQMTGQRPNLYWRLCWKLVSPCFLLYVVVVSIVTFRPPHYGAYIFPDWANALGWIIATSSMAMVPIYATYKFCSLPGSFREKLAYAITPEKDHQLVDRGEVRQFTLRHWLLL
run-description: [^3 H] GBR12935 binding in rat striatal crude membrane
Set-up: species or system rat (Wistar male)
experimental-setup: 1 nM [^3 H] GBR12935, rat striatal crude membrane, 4° C., 80 minutes; amantadine line in μM
test-readout: IC50 (µM)
Answer in µM, number only, no unit symbol.

Field request: IC50 | item: NC12CC3CC(CC(C3)C1)C2 [Amantadine, amantadine, reference compound]
819

====

system-under-test: [^3 H] GBR12935 binding in rat strialal crude membrane (Rattus norvegicus)
Construct: from tissue; host or cells: corpus striatum of Wistar male rat, crude membrane
run-description: [^3 H] GBR12935 binding in rat striatal crude membrane
Design: species or system rat (Wistar male)
experimental-setup: 1 nM [^3 H] GBR12935, rat striatal crude membrane
test-readout: Hill coefficient (nH)

Field request: Hill coefficient (nH) | item: O=C(O)/C=C\C(=O)O.O=C(O)/C=C\C(=O)O.Oc1ccc(NCC(O)CN2CCN(CCCC(c3ccc(F)cc3)c3ccc(F)cc3)CC2)cc1 (stereo not shown)
0.63 ± 0.09

Query COc1cc(NCC(O)CN2CCN(CCCC(c3ccc(F)cc3)c3ccc(F)cc3)CC2)cc(OC)c1OC.O=C(O)/C=C\C(=O)O.O=C(O)/C=C\C(=O)O (stereo not shown) next
0.79 ± 0.04

Query OC(CNc1ccccc1)CN1CCN(CCC(c2ccc(F)cc2)c2ccc(F)cc2)CC1 (stereo not shown) next
0.67 ± 0.04

Query OC(CNc1ccc(Cl)c(Cl)c1)CN1CCN(CCCC(c2ccc(F)cc2)c2ccc(F)cc2)CC1 (stereo not shown) next
0.74 ± 0.03

Query O=C(O)/C=C\C(=O)O.O=C(O)/C=C\C(=O)O.O=C(O)/C=C\C(=O)O.OC(CNc1ccncc1)CN1CCN(CCCC(c2ccc(F)cc2)c2ccc(F)cc2)CC1 (stereo not shown) next
0.74 ± 0.04

Query Cc1ccc(NCC(O)CN2CCN(CCCC(c3ccc(F)cc3)c3ccc(F)cc3)CC2)cc1.Cl.Cl (stereo not shown) next
0.65 ± 0.03

Query OC(CNc1ccccc1)CN1CCN(CCCC(c2ccc(F)cc2)c2ccc(F)cc2)CC1 (single isomer, unassigned; (+)) [Compound 16] next
0.57 ± 0.04

Query OC(CNc1ccccc1)CN1CCN(CCCCC(c2ccc(F)cc2)c2ccc(F)cc2)CC1 (stereo not shown) next
0.89 ± 0.07

Query OC(CNc1ccccc1)CN1CCN(CCCC(c2ccc(F)cc2)c2ccc(F)cc2)CC1 (single isomer, unassigned; (-)) [Compound 15] next
0.72 ± 0.05

Query CC(C)(C)c1cc(NCC(O)CN2CCN(CCCC(c3ccc(F)cc3)c3ccc(F)cc3)CC2)cc(C(C)(C)C)c1O (stereo not shown) next
0.78 ± 0.07

Query Cl.Cl.OC(CNc1ccc(F)cc1)CN1CCN(CCCC(c2ccc(F)cc2)c2ccc(F)cc2)CC1 (stereo not shown) next
0.74 ± 0.01

Query COc1ccc(NCC(O)CN2CCN(CCCC(c3ccc(F)cc3)c3ccc(F)cc3)CC2)cc1.Cl.Cl (stereo not shown) next
0.52 ± 0.02

Query NC12CC3CC(CC(C3)C1)C2 [Amantadine, amantadine, reference compound] next
1.36 ± 0.08

Query Nc1ccc(NCC(O)CN2CCN(CCCC(c3ccc(F)cc3)c3ccc(F)cc3)CC2)cc1 (stereo not shown) next
0.64 ± 0.09

Query Cl.Cl.OC(CNc1ccc(Cl)cc1)CN1CCN(CCCC(c2ccc(F)cc2)c2ccc(F)cc2)CC1 (stereo not shown) next
0.82 ± 0.03

Query Cl.Cl.O=[N+]([O-])c1ccc(NCC(O)CN2CCN(CCCC(c3ccc(F)cc3)c3ccc(F)cc3)CC2)cc1 (stereo not shown) next
0.69 ± 0.04

Query OC(CNc1ccccc1)CN1CCN(C(c2ccc(F)cc2)c2ccc(F)cc2)CC1 (stereo not shown) next
0.66 ± 0.05

Query OC(CNc1ccccc1)CN1CCN(CC(c2ccccc2)c2ccccc2)CC1 (stereo not shown) next
0.76 ± 0.02

Query CN(C)c1ccc(NCC(O)CN2CCN(CCCC(c3ccc(F)cc3)c3ccc(F)cc3)CC2)cc1 (stereo not shown) next
0.94 ± 0.10
